Test system: RARa homodimer (NR concentration 270 nM)
assay.remarks: PBM binding z-score (relative to random genomic background probes); higher = stronger binding; sequences stand for … in GC…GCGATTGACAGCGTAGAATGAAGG
Okay, here is how we bin by PBM binding z-score: Low = under 0.2, Medium = from 0.2 up to 0.7, High = 0.7 and over

Example cases with answers are listed next.
CCTCGGAGGACAGAAGGTCAGCGCTGTCCGCTTT
Medium
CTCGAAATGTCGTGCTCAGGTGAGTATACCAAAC
Medium
TGTAAAAGTTCAAAGGTAACGTAAGTATCCACAC
High
CCTAGCAGCCCAATCTGGGTCACTCAAGGCTTGA
Low
TCTTGTAGATCAATAGAGGTTTAGAAAGTGCGCT
Low

q: Assign a category based on measured PBM binding z-score for ATATGTAGGTTACATCCGGGTCATGCAGGCTATG and give only the class name.
a: Medium

q: Hi, small favor: classify ACTATTATTTGACTTAGGGCAACCGATACGACGC by its PBM binding z-score when you get a moment.
a: High

q: Determine which band this sequence sits in: AGTCAAAGTTCACTAGGTAAAGTAAGATTCAGCT
a: High

q: Record AGTCAAGGTTCAGGACGAGGTAACGTAAAGCACG — which class?
a: Low

q: Categorize the following entry: ACTATTAGTTGACTTAGGGCGACCGATACGACGC
a: Medium

q: Which category fits this record: TATACAGGGTCCAAGGCCAGAGTACGAATGTCGA
a: Medium

All values here come from the supplement of paper PMC6555819.
